I'd appreciate it if you could supply Percent Effect values for the items below.
Target: AMP-activated protein kinase, AMPK (Homo sapiens) (UniProt P54646+O43741+P54619+Q9UGJ0+Q9Y478+Q13131+Q9UGI9)
Assay: AMP-dependent Kinase enzyme assay. An in vitro enzyme assay that detects ADP turnover that is directly proportional to AMPK activity. This uses naive AMPK that is activated during the assay with MK-8722
Format: functional
Design: scale not given: direction of the effect not stated beside the values
Conditions: 30 µM
Answers are plain numbers, in %.

Hey, can you go through the list below and give me Percent Effect for every item?
1. CN(CCn1cncc1-c1cnc(N2CCOCC2)nc1)C1CCCC1
2. NC1CCc2nc(-c3cccnc3)nc(Nc3ccc(F)cc3)c2C1 (configuration not stated)
3. COc1ccc(O)c(C(=O)NCC2CCCN(C3CCOCC3)C2)c1 (configuration not stated)
4. Cc1nnc(C(C)N2CCCN(Cc3noc(C4CC4)n3)CC2)o1 (configuration not stated)
5. CN(C)c1ncccc1NC(=O)COC1CCCC1
6. NC(=O)C1CCN(CCCNC(=O)Nc2nncs2)CC1

12.2
27.2
12.5
-4.62
6.19
1.35

* * *

Would you kindly list Percent Effect for each of these molecules?
Molecular target: AMP-activated protein kinase, AMPK (Homo sapiens) (UniProt P54646+O43741+P54619+Q9UGJ0+Q9Y478+Q13131+Q9UGI9)
Test: AMP-dependent Kinase enzyme assay. An in vitro enzyme assay that detects ADP turnover that is directly proportional to AMPK activity. This uses naive AMPK that is activated during the assay with MK-8722
Type: functional
Design: scale not given: direction of the effect not stated beside the values
Conditions: 30 µM
Numbers only, in %.

Solved entries:
>  <molecule>
CO[C@H]1C[C@@H](O)C12CCN(C(=O)NCc1ccco1)CC2

>  <Percent Effect, %>
-2.57

$$$$
>  <molecule>
CCCn1cc(-c2cc(C(=O)N(C)C)c3ccc(C)cc3n2)cn1

>  <Percent Effect, %>
11.6

$$$$
>  <molecule>
O=C(CCN1CCOCC1)Nc1cccc(CNCc2cccs2)c1

>  <Percent Effect, %>
-8.77

$$$$
>  <molecule>
CC(C)[C@@H]1CN(C(=O)C2(c3ccccc3)CC2)C[C@H]1C(=O)O

>  <Percent Effect, %>
-2.56

$$$$
>  <molecule>
CSc1ccc(OCCN2CCNC(=O)C2C)cc1 (centres undefined)

>  <Percent Effect, %>
6.4

$$$$

Kindly give each listed record's Percent Effect.
1. O=C(CCC1CCCO1)NCCN1CCCCC1 (centres undefined)
2. O=C(CCn1ccnc1)N1CC[C@H](Oc2ccc(F)cc2)[C@@H](O)CC1
3. Cc1cnn(CCNCC(=O)N2CCN(c3ncccn3)CC2)c1
4. CN1CCN(C)C(CNc2c(C#N)cnc3ccc(Cl)cc23)C1 (centres undefined)
5. CCc1nn(C)c(Cl)c1CN1CCC2(C1)CN(C)C(=O)O2 (centres undefined)

1. -1.67
2. 20.9
3. -6.6
4. 8.02
5. 6.22

Dear colleague, could you please provide Percent Effect for the molecules listed below?
1. COc1ccc(S(=O)(=O)N2CCOC(C)(C(N)=O)C2)cc1 (centres undefined)
2. CC1C(=O)NCCN1CCOc1ccc(C#N)cc1 (centres undefined)
3. CCc1ccccc1OCCN(C)C(=O)CCN1CCCCO1

1: 15.5; 2: 3.66; 3: 0.981

Count: 2. Required value per item: Percent Effect.
1. O=C(Cc1cccnc1)N1CCCC(c2cc(C(F)(F)F)[nH]n2)C1 (centres undefined)
2. Cc1ccc(S(=O)(=O)N(CC2CCOC2)C2CC2)cc1N(C)C (centres undefined)

1: 2.17; 2: -15
